Test: chemical genetic growth profiling, strain panel (AID 1159580);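 also: tested at 20 µM; growth read once vehicle control cultures reached saturation at 30 °C; lower values mean less growth of the strain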
Conditions: S. cerevisiae deletion strains, growth OD, locus YDR001C, strain nth1
Screen size: about 5,500 compounds; about 2,000 (36%) were called active. Inconclusive results (about 18%) are left out. Rule as the data show it: active = normalized growth mostly below about 0.91 (no sharp cut-off); inconclusive = no clear call, values can overlap the other calls; inactive = mostly above about 0.92. The list shows a part of the results. Where a SMILES comes first, the peptide text is derived from it. Bridges are numbered along the chain shown (N, C = ends). [ ]: non-standard residue; d: D form. The star is where a group is joined. ξ: configuration not given here. ξDab(CH2SO3H) = NC(CCNCS(=O)(=O)O)C(=O)O; Heptanoyl(6-Me) = CC(C)CCCCC(=O)*; Dab = NCC[CH](N)C(=O)O
Classes used: active, inactive

[
  {
    "Compound": "COC1=C[C@@H]2[C@@H]3Cc4ccc(OC)c(O)c4[C@]2(CCN3C)CC1=O",
    "Qualitative label": "inactive"
  },
  {
    "Compound": "C[C@@H]1CC[C@H]2[C@@H](C)C(O)O[C@@H]3O[C@@]4(C)CC[C@@H]1[C@]32OO4 (stereo not given in full)",
    "Qualitative label": "active"
  },
  {
    "Compound": "COc1cc(C(=O)NCCCCCC(=O)O)cc(OC)c1OC",
    "Qualitative label": "inactive"
  },
  {
    "Compound": "NCCC(=O)N[C@@H](Cc1cnc[nH]1)C(=O)O",
    "Qualitative label": "inactive"
  },
  {
    "Compound": "CO[C@@]12[C@@H]3NC3CN1C1=C(C(=O)C(N)=C(C)C1=O)[C@@H]2COC(N)=O (stereo not given in full)",
    "Qualitative label": "inactive"
  },
  {
    "Compound": "COc1cccc2c1C(=O)c1c(O)c3c(c(O)c1C2=O)C[C@@](O)(C(=O)CO)C[C@@H]3OC1C[C@H](N)[C@H](O)[C@H](C)O1 (stereo not given in full)",
    "Qualitative label": "active"
  },
  {
    "Compound": "NC12CC3CC(CC(C3)C1)C2",
    "Qualitative label": "inactive"
  },
  {
    "Compound": "CC1OC(=O)C(C(C)C)NC(=O)C(C(C)C)OC(=O)C(C(C)C)NC(=O)C(C)OC(=O)C(C(C)C)NC(=O)C(C(C)C)OC(=O)C(C(C)C)NC(=O)C(C)OC(=O)C(C(C)C)NC(=O)C(C(C)C)OC(=O)C(C(C)C)NC1=O (stereo not given)",
    "Qualitative label": "active"
  },
  {
    "Compound": "C#C[C@]1(OC(C)=O)CCC2C3CCC4=C/C(=N\\O)CCC4C3CC[C@@]21CC (stereo not given in full)",
    "Qualitative label": "inactive"
  },
  {
    "Compound": "CC1=NS(=O)(=O)c2cc(Cl)ccc2N1",
    "Qualitative label": "inactive"
  },
  {
    "Compound": "COc1cc(N)c(Cl)cc1C(=O)NC1CCN(Cc2ccccc2)CC1",
    "Qualitative label": "inactive"
  },
  {
    "Compound": "CC(=O)NCc1c(I)c(NC(C)=O)c(I)c(C(=O)O)c1I",
    "Qualitative label": "inactive"
  },
  {
    "Compound": "CC(=O)/C=C\\[C@@H]1[C@@]2(C)CCCC(C)(C)C2CC[C@@]1(C)O (stereo not given in full)",
    "Qualitative label": "inactive"
  },
  {
    "Compound": "COc1c(-c2coc3cc4c(cc3c2=O)CC(O)C(C)(C)O4)ccc2c1C=CC(C)(C)O2 (stereo not given)",
    "Qualitative label": "inactive"
  },
  {
    "Compound": "C[C@@H]1CC[C@H]2[C@@H](C)C(=O)O[C@@H]3O[C@@]4(C)CC[C@@H]1[C@]32OO4",
    "Qualitative label": "inactive"
  },
  {
    "Compound": "CC1(C)CC[C@]2(C(=O)O)CC[C@]3(C)C(=CCC4[C@@]5(C)CC[C@@H](O)C(C)(C)C5CC[C@]43C)C2C1 (stereo not given in full)",
    "Qualitative label": "inactive"
  },
  {
    "Compound": "CCOC(=O)OC(C)OC(=O)C1N2C(=O)C(NC(=O)[C@H](N)c3ccccc3)C2SC1(C)C (stereo not given in full)",
    "Qualitative label": "inactive"
  },
  {
    "Compound": "OC(CCN1CCCCC1)(c1ccccc1)C1CC2C=CC1C2 (stereo not given)",
    "Qualitative label": "inactive"
  },
  {
    "Compound": "Cc1cc(O)cc(=O)o1",
    "Qualitative label": "inactive"
  },
  {
    "Compound": "OC(CCN1CCCC1)(c1ccccc1)C1CCCCC1 (stereo not given)",
    "Qualitative label": "inactive"
  },
  {
    "Compound": "Nc1ccc(S(=O)(=O)Nc2cnc3ccccc3n2)cc1",
    "Qualitative label": "inactive"
  },
  {
    "Compound": "CCOP(=S)(OCC)Oc1nc(Cl)c(Cl)cc1Cl",
    "Qualitative label": "inactive"
  },
  {
    "Compound": "Cc1ccc(S(=O)(=O)NC(=O)NN2CC3CCCC3C2)cc1 (stereo not given)",
    "Qualitative label": "inactive"
  },
  {
    "Compound": "Cc1cc(O)cc(C)c1Cl",
    "Qualitative label": "inactive"
  },
  {
    "Compound": "Cc1ccc(N=CN(C)C=Nc2ccc(C)cc2C)c(C)c1",
    "Qualitative label": "inactive"
  },
  {
    "Compound": "Cc1cc(O)ccc1Cl",
    "Qualitative label": "inactive"
  },
  {
    "Compound": "C#C[C@]1(O)CCC2C3CCC4=C(CCC(=O)C4)C3CC[C@@]21C (stereo not given in full)",
    "Qualitative label": "inactive"
  },
  {
    "Compound": "C[C@]12CCC(=O)C=C1CCC1C2[C@@H](O)C[C@@]2(C)C1CC[C@]2(O)C(=O)CO (stereo not given in full)",
    "Qualitative label": "inactive"
  },
  {
    "Compound": "CC(C)(Oc1ccc(CCNC(=O)c2ccc(Cl)cc2)cc1)C(=O)O",
    "Qualitative label": "inactive"
  },
  {
    "Compound": "C[C@@H]1C(=O)O[C@H]2[C@H]1CC[C@@]1(C)C=CC(=O)[C@@]3(C)O[C@@]213",
    "Qualitative label": "inactive"
  },
  {
    "Compound": "CCC(C)C1NC(=O)C(CCNCS(=O)(=O)O)NC(=O)C(NC(=O)C(CCNCS(=O)(=O)O)NC(=O)C(NC(=O)C(CCNCS(=O)(=O)O)NC(=O)CCCCC(C)C)C(C)O)CCNC(=O)C(C(C)O)NC(=O)C(CCNCS(=O)(=O)O)NC(=O)C(CCNCS(=O)(=O)O)NC(=O)C(C(C)CC)NC1=O (stereo not given) ({Heptanoyl(6-Me)}-[ξDab(CH2SO3H)]T[ξDab(CH2SO3H)][Dab][ξDab(CH2SO3H)]II[ξDab(CH2SO3H)][ξDab(CH2SO3H)]T; lactam 4-C; configuration not given here)",
    "Qualitative label": "inactive"
  },
  {
    "Compound": "N#CC(O[C@@H]1O[C@H](CO[C@@H]2O[C@H](CO)[C@@H](O)[C@H](O)[C@H]2O)[C@@H](O)[C@H](O)[C@H]1O)c1ccccc1 (stereo not given in full)",
    "Qualitative label": "inactive"
  },
  {
    "Compound": "COc1c(-c2coc3cc4c(cc3c2=O)CC(OC(C)=O)C(C)(C)O4)ccc2c1C=CC(C)(C)O2 (stereo not given)",
    "Qualitative label": "inactive"
  },
  {
    "Compound": "CC(C)CCCC1(C)C=Cc2c(O)c3c(c(CCC(C)C)c2O1)OC12C(CC4CC1C(C)(C)OC2(CCC(C)C(=O)O)C4O)C3=O (stereo not given)",
    "Qualitative label": "inactive"
  },
  {
    "Compound": "COc1cccc2c1C(=O)c1c(O)c3c(c(O)c1C2=O)C[C@@](O)(C(C)=O)C[C@@H]3O[C@H]1C[C@H](N)[C@H](O)[C@H](C)O1",
    "Qualitative label": "inactive"
  }
]

Values were extracted from PubChem BioAssay AID1159580.
